- testTarget: cIAP2-BIR3 (Homo sapiens (Human), UniProt Q13489)
- Sequence (Q13489 238-349): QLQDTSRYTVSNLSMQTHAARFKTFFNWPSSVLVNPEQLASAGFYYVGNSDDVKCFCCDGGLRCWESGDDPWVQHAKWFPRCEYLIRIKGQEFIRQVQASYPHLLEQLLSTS
- assayText: BIR binding assay (FRET competition), cIAP2 BIR3
pIC50: −log10 of the molar value.
Listing of recorded pIC50 by entry.

Completed entries (count: 3):
sampleSmiles	readout	reportedMeasurement
C[C@@H]1CN(CC(=O)N2CC(C)(C)c3[nH]c(=O)c(Cc4ccc(F)cc4)cc32)[C@@H](CN2CCO[C@H](C(=O)N(C)CCCN(C)C(=O)[C@@H]3CN(C[C@H]4CN[C@H](C)CN4CC(=O)N4CC(C)(C)c5[nH]c(=O)c(Cc6ccc(F)cc6)cc54)CCO3)C2)CN1	pIC50	8.10 to 8.86
C[C@@H]1CN(CC(=O)N2CC(C)(C)c3[nH]c(=O)c(Cc4ccc(F)cc4)cc32)[C@@H](CN2CCO[C@H](COc3ccc(Cl)c(OC[C@@H]4CN(C[C@H]5CN[C@H](C)CN5CC(=O)N5CC(C)(C)c6[nH]c(=O)c(Cc7ccc(F)cc7)cc65)CCO4)c3)C2)CN1	pIC50	7.80 to 8.10
C[C@@H]1CN(CC(=O)N2CC(C)(C)c3[nH]c(=O)c(Cc4ccc(F)cc4)cc32)[C@@H](CN2CCO[C@H](C(=O)NCCNC(=O)[C@@H]3CN(C[C@H]4CN[C@H](C)CN4CC(=O)N4CC(C)(C)c5[nH]c(=O)c(Cc6ccc(F)cc6)cc54)CCO3)C2)CN1	pIC50	7.80 to 8.10

Kindly review the next compound as well.
-- ask Please report the measured pIC50 for `C[C@@H]1CN(CC(=O)N2CC(C)(C)c3[nH]c(=O)c(Cc4ccc(F)cc4)cc32)[C@@H](CN2CCO[C@H](C(=O)NCC#CC#CCNC(=O)[C@@H]3CN(C[C@H]4CN[C@H](C)CN4CC(=O)N4CC(C)(C)c5[nH]c(=O)c(Cc6ccc(F)cc6)cc54)CCO3)C2)CN1`
-- reply 7.80 to 8.10

Where these numbers come from: patent US20250326771A1
